Target: Galectin-1 (Homo sapiens)
Sequence (P09382 whole entry): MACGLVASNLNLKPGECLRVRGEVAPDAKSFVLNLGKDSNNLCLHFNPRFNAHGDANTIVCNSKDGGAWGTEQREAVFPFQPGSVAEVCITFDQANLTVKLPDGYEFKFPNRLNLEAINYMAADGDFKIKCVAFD
Experiment: Fluorescence anisotropy assay, affinity for galectin-1
Conditions: compound as inhibitor of the interaction between galectin and a fluorescein tagged saccharide probe
Procedure: The affinity of Example 1-43 for galectins were determined by a fluorescence anisotropy assay where the compound was used as an inhibitor of the interaction between galectin and a fluorescein tagged saccharide probe as described Sörme, P., Kahl-Knutsson, B., Huflejt, M., Nilsson, U. J., and Leffler H. (2004) Fluorescence polarization as an analytical tool to evaluate galectin-ligand interactions. […]
QUANTITY_KIND: Kd
Value and unit, in that order.

1. COC1C(n2cc(-n3ccc(Cl)n3)nn2)[C@@H](O)C(CO)O[C@@H]1Sc1cnc(C(F)(F)F)c(Cl)c1 (stereo partly shown) :: 360 nM
2. COC1C(n2cc(-n3ccc(Cl)n3)nn2)[C@@H](O)C(CO)O[C@@H]1Sc1cc(Br)cnc1C(=O)N(CC(C)C)C(C)C (stereo partly shown) :: 110 nM
3. COC1C(n2cc(-n3ccc(Cl)n3)nn2)[C@@H](O)C(CO)O[C@@H]1Sc1cc(Br)cnc1C(=O)N1CCCC1 (stereo partly shown) :: 69 nM

Kindly consider the entry below.
QUERY: Query (molecule): COC1C(n2cc(-n3cc(F)cn3)nn2)[C@@H](O)C(CO)O[C@@H]1Sc1cc(Br)cnc1C#N (stereo partly shown) ; field requested: Kd
RESULT: 180 nM
